Test system: SNB-19
assay info: NCI tumour cell line growth inhibition, 48 h
Calls of active or inactive are those of the source. Rule as the data show it: active = GI50 up to about 1.1 µM and inactive = higher.
API: response.call in True = active, False = inactive

## Input Write down the call the test reported for this molecule. Item: Cc1ccc(-c2c(C#N)c(-c3ccc([N+](=O)[O-])cc3)c(C#N)c(=O)n2NS(=O)(=O)c2ccc(C)cc2)cc1
## Output False

## Input // next record O=C1OC(c2ccccc2)=N/C1=C\c1ccc(N(CCCl)CCCl)cc1
## Output False

## Input // next record CC12OC3CC(O1)C1(C=O)C4CCC5(C)C(c6ccc(=O)oc6)CCC5(O)C4CCC1(C3)O2 (stereo unspecified)
## Output True

## Input // next record COc1cc(Oc2c(C)c(Cl)c(OC)c(Cl)c2OC)c2c(c1Cl)COC2=O
## Output False

## Input // next record Cc1ccc(S(=O)(=O)N2c3ccccc3[C@H]3CCC=C[C@H]32)cc1
## Output False

## Input // next record FC(F)(F)c1ccc2c(-c3cc[nH]c3)ccnc2c1
## Output False

## Input // next record COC(=O)C(/C(=N\O)C(=O)Nc1cccc(Cl)c1C)c1cnc2ccccc2n1 (stereo unspecified)
## Output False

## Input // next record c1cc(CCN2CCCCC2)ccn1
## Output False

## Input // next record Cc1ccccc1NC(=O)C1C(=O)N(c2ccccc2C)C(=O)/C1=N\NC(N)=S (stereo unspecified)
## Output False

## Input // next record Clc1ccc(C(c2ccc(Cl)cc2)c2cncnc2)cc1
## Output False

## Input // next record Clc1ccc(Cl)c2[s+]snc12
## Output False

## Input // next record CCOC(=O)C=C1CCC2(CC1)OCCO2
## Output False

## Input // next record COc1ccc(-c2c3ccccc3c(-c3ccc(OCCCCCBr)cc3)c3ccccc23)cc1
## Output False

## Input // next record CCCCn1c(O)nc2c(N)ncnc21
## Output False

## Input // next record COCCNC1CCC2(SCCS2)c2[nH]c3ccccc3c21 (stereo unspecified)
## Output False

## Input // next record CNNC1=NS(=O)(=O)c2cc(C(=O)OC)c(Cl)cc2S1
## Output False

## Input // next record CN(C)c1ccc(/C=C2\N=C(N/N=C/c3ccc(N(C)C)cc3)NC2=O)cc1
## Output False

## Input // next record Cc1cc(NCCCCCCCCNc2cc(C)nc3cc(N)ccc23)c2ccc(N)cc2n1
## Output False

## Input // next record O=c1[nH]c(=O)n(C2OC(CO)C(O)C2O)cc1OCCCc1ccccc1 (stereo unspecified)
## Output False

## Input // next record CC(=O)OC1CC[C@@]2(C)C(CC(OC3OC(CO)C(O)C(O)C3O)[C@]3(C)C2CCC24CC23CC[C@H]4C(C)CC(O)[C@@H](O)C(C)(C)O)C1(C)C (stereo partly specified)
## Output False

## Input // next record CCC1(c2ccc(N3C(=O)c4cccc5cc([N+](=O)[O-])cc(c45)C3=O)cc2)CCC(=O)NC1=O (stereo unspecified)
## Output False

====

System: BT-549
assay info: NCI tumour cell line growth inhibition, 48 h
Calls of active or inactive are those of the source. Rule as the data show it: active = GI50 up to about 1.1 µM and inactive = higher.
For each record, write down the corresponding GI50.

## Input Consider the molecule C=CCSC1=N/C(=C\c2ccc(OC)cc2)C(=O)N1CC=C and give its measured GI50.
## Output 27 µM (inactive)

## Input // next record O=C(Nc1ccccc1)c1cc2c(cc1Cl)SC(NNCCO)=NS2(=O)=O
## Output > 100 µM (inactive)

## Input // next record COC(=O)C1CCCN1C(=O)C(Cc1cn(S(=O)(=O)c2ccc(C)cc2)cn1)NC(=O)OC(C)(C)C (stereo not given)
## Output > 100 µM (inactive)

## Input // next record O=P(Oc1ccc(Cl)cc1)(Oc1ccc(Cl)cc1)N1CC1
## Output > 10 µM (inactive)

## Input // next record Cc1ccc2c(O)cc(-c3sc4ccccc4c3C)nc2n1
## Output 16.9 µM (inactive)

## Input // next record Cc1ccc(-c2c(C#N)c(-c3ccc([N+](=O)[O-])cc3)c(C#N)c(=O)n2NS(=O)(=O)c2ccc(C)cc2)cc1
## Output 16.5 µM (inactive)

## Input // next record O=C(O)CCCOc1cc(-c2ccccc2F)nc2cc3c(cc12)OCO3
## Output 29.8 µM (inactive)

## Input // next record Cc1ccsc1/C=N/NC1=NCCN1
## Output > 100 µM (inactive)

## Input // next record C[C@H]1O[C@@H](c2c(O)ccc3ccccc23)C[C@@H](N(C)C)C1O (stereo not given in full)
## Output > 100 µM (inactive)

## Input // next record N#Cc1ccc(Nc2nc3[nH]cnc3c(=O)[nH]2)cc1
## Output > 100 µM (inactive)

Source: ChEMBL document CHEMBL1201862
